- target or test system: recombinant eIF4E (Homo sapiens (Human), UniProt P06730)
- Sequence (P06730 whole entry): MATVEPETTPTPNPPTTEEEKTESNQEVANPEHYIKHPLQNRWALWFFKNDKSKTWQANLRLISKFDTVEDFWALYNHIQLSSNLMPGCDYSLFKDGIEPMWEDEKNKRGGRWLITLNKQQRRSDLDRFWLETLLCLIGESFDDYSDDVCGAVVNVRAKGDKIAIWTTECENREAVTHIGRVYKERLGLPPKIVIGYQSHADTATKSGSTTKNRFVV
- measurement description: Fluorescence polarization competition assay for eIF4E binding potency
- test settings: inhibition of eIF4E/EDA-m7GDP-ATTO-550 binding by 50%; Table 4B calculated values; read-out: IC50
pIC50: −log10 of the molar value.
assay metric: pIC50

Use these answered entries as a reference point.
compound: Cc1cc(-c2cc(Cl)ccc2OCCn2c(C)nc3cc(OC(F)F)cc(C#N)c3c2=O)c2scc(C(=O)O)c2n1 [compound 579]
observed measurement: 7.52
//
compound: Cc1nc2cnc(N(C)C3CCN(C4CC(F)(F)C4)CC3)c(C#N)c2c(=O)n1CC#Cc1ccc(Cl)cc1-c1ccnc2c(C(=O)NS(C)(=O)=O)csc12 [compound 1108]
observed measurement: 7.54
//
compound: Cc1cc(-c2cc(Cl)ccc2OCCn2c(C)nc3cc(C(F)(F)F)c(-c4cnc(C(F)F)cn4)c(C#N)c3c2=O)c2scc(C(=O)O)c2n1 [compound 1025]
observed measurement: 7.52
//
compound: Cc1cc(-c2cc(Cl)ccc2OCCn2c(C)nc3c(C4CC4)ncc(C#N)c3c2=O)c2scc(C(=O)O)c2n1 [compound 339]
observed measurement: 7.57
//
compound: Cc1cc(-c2cc(Cl)ccc2OCCn2c(C)nc3cnc(C4CCCC(F)(F)C4)c(C#N)c3c2=O)c2scc(C(=O)O)c2n1 (stereo not shown) [compound 931]
observed measurement: 7.86

A: Cc1nc2cnc(C3=CCN(CC(F)(F)F)CC3)c(C#N)c2c(=O)n1CCOc1ccc(Cl)cc1-c1ccnc2c(C(=O)O)csc12 [compound 889]
B: Cc1cc(-c2cc(Cl)ccc2OCCn2c(C)nc3cnc(N(C)C4CCN(C)CC4)c(C#N)c3c2=O)c2sc(C)c(C(=O)O)c2n1 [compound 848]
Please tell me which of the two, A or B , has the higher reported pIC50 value. Pick one and reply with its label.
A
(A: 7.91, B: 7.57)

1: Cc1cc(-c2cc(Cl)ccc2OCCn2c(C)nc3cc(C(F)(F)F)c(-c4cn(C)nc4C)c(C#N)c3c2=O)c2scc(C(=O)O)c2n1 [compound 1031]
2: Cc1cc(-c2cc(Cl)ccc2OCCn2c(C)nc3cc(C(F)(F)F)c(-c4ccccc4CO)nc3c2=O)c2scc(C(=O)O)c2n1 [compound 346]
Could you tell me which of these two has the smaller pIC50 figure? First: 1 Second: 2 Which one? Tell me its label.
2
(2: 7.74, 1: 7.94)

a: CNC(=O)Cc1cc2c(=O)n(CCOc3ccc(Cl)cc3-c3cccc(C(=O)O)c3)cnc2cn1 [compound 137]
b: Cc1nc2c(OC(F)(F)F)ccc(C#N)c2c(=O)n1CCOc1ccc(Cl)cc1-c1ccnc2c(C(=O)O)csc12 [compound 313]
c: Cc1cc(-c2cc(Cl)ccc2OCCn2c(C)nc3ccc(OC(F)(F)F)c(C#N)c3c2=O)c2scc(C(=O)O)c2n1 [compound 583]
Ascending by pIC50, please: list the compounds accordingly. The reply should contain the labels ordered as requested.
a, b, c

###

- target or test system: recombinant eIF4E (Homo sapiens (Human), UniProt P06730)
- measurement description: Fluorescence polarization competition assay for eIF4E binding potency
- test settings: fluorescence polarization competition, 75 nM recombinant eIF4E, 20 nM EDA-m7GDP-ATTO-550; IC50 class; read-out: elF4E FP
# IC50 per record follows

Examples with answers:
molecule: Cc1nc2cnc(C3CCN(CC(F)(F)F)CC3)c(C#N)c2c(=O)n1CCOc1ccc(Cl)cc1-c1ccnc2c(C(=O)O)csc12 [compound 1117]
target or test system: recombinant eIF4E (Homo sapiens (Human), UniProt P06730)
IC50: < 50 nM

molecule: Cc1cc(-c2cc(Cl)ccc2OCCn2c(C)nc3cnc(N(C)CC(F)F)c(C#N)c3c2=O)c2scc(C(=O)O)c2n1 [compound 973]
target or test system: recombinant eIF4E (Homo sapiens (Human), UniProt P06730)
IC50: 50 to 1000 nM

Read the next record carefully.
If you can, please state the reported IC50 value of Cc1c(C#N)c2cc(C(F)(F)F)cc(C#N)c2c(=O)n1CCOc1ccc(Cl)cc1-c1ccnc2c(C(=O)O)csc12 [compound 263] .
< 50 nM

###

- target or test system: recombinant eIF4E (Homo sapiens (Human))
- measurement description: Fluorescence polarization competition assay for eIF4E binding potency
- test settings: fluorescence polarization competition, 75 nM recombinant eIF4E, 20 nM EDA-m7GDP-ATTO-550; IC50 class; read-out: elF4E FP
pIC50: −log10 of the molar value.
assay metric: pIC50

Below: 5 compounds and their reported pIC50.
compound: CCN(c1ncc2nc(C)n(CC#Cc3ccc(Cl)cc3-c3ccnc4c(C(=O)O)csc34)c(=O)c2c1C#N)C1CCN(C2CC(F)(F)C2)CC1
target or test system: recombinant eIF4E (Homo sapiens (Human))
observed measurement: > 7.30
--
compound: Cc1cc(-c2cc(Cl)ccc2OCCn2c(C)nc3cnc(C(C)F)c(C#N)c3c2=O)c2scc(C(=O)O)c2n1 (stereo not shown)
target or test system: recombinant eIF4E (Homo sapiens (Human))
observed measurement: > 7.30
--
compound: Cc1cc(-c2cc(Cl)ccc2OCCn2c(C)nc3cnc(C4CCCC(F)(F)C4)c(C#N)c3c2=O)c2scc(C(=O)O)c2n1 (stereo not shown)
target or test system: recombinant eIF4E (Homo sapiens (Human))
observed measurement: > 7.30
--
compound: Cc1cc(-c2cc(Cl)ccc2OCCn2c(C)nc3cc(C(F)(F)F)c(CN4CCN(C)CC4)c(C#N)c3c2=O)c2scc(C(=O)O)c2n1
target or test system: recombinant eIF4E (Homo sapiens (Human))
observed measurement: > 7.30
--
compound: N#Cc1cc2c(=O)n(CCOc3ccc(Cl)cc3-c3cccc(C(=O)O)c3)cnc2cn1
target or test system: recombinant eIF4E (Homo sapiens (Human))
observed measurement: 6.00 to 7.30

What does the record list as pIC50 for `Cc1cc(-c2cc(Cl)ccc2OCCn2c(C)nc3cc(CCCN(C)C)c(Cl)c(C#N)c3c2=O)c2scc(C(=O)O)c2n1` ?
> 7.30

Recorded pIC50 of `Cc1cc(-c2cc(Cl)ccc2OCCn2c(C)nc3cnc(-c4ccc(C(F)(F)F)cc4)c(C#N)c3c2=O)c2scc(C(=O)O)c2n1` , please.
> 7.30

Need pIC50, item `Cc1nc2cc(OC(F)(F)F)c(Cl)c(C#N)c2c(=O)n1CCOc1ccc(Cl)cc1-c1ccnc2c(C(=O)O)csc12`
> 7.30

###

- target or test system: recombinant eIF4E (Homo sapiens (Human), UniProt P06730)
- measurement description: Fluorescence polarization competition assay for eIF4E binding potency
- test settings: inhibition of eIF4E/EDA-m7GDP-ATTO-550 binding by 50%; Table 4B calculated values; read-out: IC50
assay metric: IC50 (nM)

Field: example entries. Status: answers known.
smiles record: Cc1cc(-c2cc(Cl)ccc2OCCn2c(C)nc3cc(C(F)(F)F)c(CN4CCNCC4)c(C#N)c3c2=O)c2scc(C(=O)O)c2n1
observed measurement: 15

smiles record: N#Cc1c(C(F)F)ccc2ncn(CCOc3ccc(Cl)cc3-c3cccc(C(=O)O)c3)c(=O)c12
observed measurement: 61.6

smiles record: Cc1nc2cc(F)c(C#N)c(C#N)c2c(=O)n1CCOc1ccc(Cl)cc1-c1ccnc2c(C(=O)O)csc12
observed measurement: 22.8

A: Cc1nc2cc(C(F)(F)F)c(CN(C)CC(F)F)c(C#N)c2c(=O)n1CCOc1ccc(Cl)cc1-c1ccnc2c(C(=O)O)csc12
B: Cc1cc(-c2cc(Cl)ccc2OCCn2c(C)nc3cc(F)c(C4=CCCC4)c(C#N)c3c2=O)c2scc(C(=O)O)c2n1
C: Cc1cc(-c2cc(Cl)ccc2OCCn2c(C)nc3ccc(N4CCN(C)CC4)nc3c2=O)c2scc(C(=O)O)c2n1
D: Cc1nc2cnc(C#N)cc2c(=O)n1CC#Cc1ccc(Cl)cc1-c1ccnc2c(C(=O)O)csc12
// ranking: key=IC50, reverse=True Please list the labels according to the requested order.
D, C, A, B

a: Cc1cc(-c2cc(Cl)ccc2OCCn2c(C)nc3c(C)nc(-c4ccc(F)cc4)c(C#N)c3c2=O)c2scc(C(=O)O)c2n1
b: Cc1cc(-c2ncc3nc(C)n(CCOc4ccc(Cl)cc4-c4ccc(C)c5c(C(=O)O)csc45)c(=O)c3c2C#N)ccn1
c: Cc1cc(-c2cc(Cl)ccc2OCCn2c(C)nc3cc(C(F)(F)F)c(CN(C)C)c(C#N)c3c2=O)c2scc(C(=O)O)c2n1
Order each entry by recorded IC50, climbing from the minimum. Give the labels in the order specified.
b, c, a
(b: 5.19 nM, c: 8.69 nM, a: 13.5 nM)

I: Cc1cc(-c2cc(Cl)ccc2OCCn2c(C)nc3cc(Cl)c(N4CCC(F)(F)C4)c(C#N)c3c2=O)c2scc(C(=O)O)c2n1
II: COc1ncc(-c2cc(Cl)ccc2OCCn2cnc3cnc(C#N)cc3c2=O)nc1C(=O)O
Form: Entry with minimum IC50 (choose one): I / II Record your answer as the label of the chosen record.
I
(I: 5.95 nM, II: 1230 nM)

A: Cc1cc(-c2cc(Cl)ccc2C#CCn2c(C)nc3cc(C(F)(F)F)c(CN4CCN(C)CC4)c(C#N)c3c2=O)c2scc(C(=O)O)c2n1
B: Cc1nc2c(C(C)C)nc(N3CCN(CCF)CC3)c(C#N)c2c(=O)n1CCOc1ccc(Cl)cc1-c1ccnc2c(C(=O)O)csc12
C: Cc1cc(-c2cc(Cl)ccc2OCCn2c(C)nc3cc(C(F)(F)F)c(CC4CCN(C)CC4)c(C#N)c3c2=O)c2scc(C(=O)O)c2n1
D: CSC1CN(c2c(Cl)cc3nc(C)n(CCOc4ccc(Cl)cc4-c4cc(C)nc5c(C(=O)O)csc45)c(=O)c3c2C#N)C1
Highest IC50 first, then in falling order down to the smallest. Lab note: final answer is the ordered label list.
D, B, C, A

P: Cc1cc(-c2cc(Cl)ccc2OCCn2c(C)nc3cc(C(F)(F)F)c(-c4nc(C)ncc4F)c(C#N)c3c2=O)c2scc(C(=O)O)c2n1
Q: N#Cc1cc2c(=O)n(CCOc3ccc(Cl)cc3-c3cccc(-c4nn[nH]n4)c3)cnc2cn1
Returns: the label, P or Q , whose recorded IC50 is the lower number. Answer with the label corresponding to your selection.
P
(P: 3.32 nM, Q: 970 nM)

These measurements were taken from patent US11286268B1.
